All figures here come from ChEMBL document CHEMBL1129417.

# Tested on: Mus musculus
# Protocol Notes: compound was tested in vivo for hypoglycemic activity expressed as Glucose lowering relative to positive control in 6-8 week old C57BL/6J ob/ob mouse at 0.5 mg/kg
# Type: functional
Reported values of Hypoglycemic activity for individual entries
Quantity Kind: Hypoglycemic activity

>>> result("CCCc1ccc(CC(C)(Oc2ccc(C(C)C)cc2)C(=O)[O-])cc1.[Na+] (stereo not drawn)")
"69%"
>>> result("CCc1cccc(CC(C)(Oc2ccc(Cc3ccccc3)cc2)C(=O)[O-])c1.[Na+] (stereo not drawn)")
"52%"
>>> result("CCc1ccc(CC(C)(Oc2ccc(C(C)C)cc2)C(=O)[O-])cc1.[Na+] (stereo not drawn)")
"76%"
>>> result("CC(C)c1ccc(OC(C)(Cc2cccc(-c3ccccc3)c2)C(=O)[O-])cc1.[Na+] (stereo not drawn)")
"46%"
>>> result("CCc1ccc(CC(C)(Oc2ccc(C(=O)c3ccccc3)cc2)C(=O)O)cc1 (stereo not drawn)")
"60%"
>>> result("CC(Cc1ccc2c(c1)CCC2)(Oc1ccc(Cc2ccccc2)cc1)C(=O)[O-].[Na+] (stereo not drawn)")
"50%"
>>> result("CC(C)c1ccc(OC(C)(Cc2ccc(-c3ccccc3)cc2)C(=O)[O-])cc1.[Na+] (stereo not drawn)")
"21%"
>>> result("CC(C)c1ccc(OC(C)(Cc2ccc3c(c2)CCC3)C(=O)[O-])cc1.[Na+] (stereo not drawn)")
"34%"

* * *

# System: 3T3-L1
# Protocol Notes: compound was evaluated for their acute effects in vitro by measuring 2-Deoxyglucose (2DG) uptake in vehicle treated 3T3-L1 adipocytes at concentration of 30 micro M
# Format: functional
Quantity Kind: Basal uptake (%)

>>> result_number("CCc1cccc(CC(C)(Oc2ccc(C(C)C)cc2)C(=O)[O-])c1.[Na+] (stereo unspecified)")
246
>>> result_number("CCc1cccc(CC(C)(Oc2ccc(Cc3ccccc3)cc2)C(=O)[O-])c1.[Na+] (stereo unspecified)")
265
>>> result_number("CC(C)c1ccc(OC(C)(Cc2ccc(Cl)cc2)C(=O)O)cc1 (stereo in doubt; 26)")
291
>>> result_number("CCc1ccc(CC(C)(Oc2ccc(C(C)C)cc2)C(=O)[O-])cc1.[Na+] (stereo unspecified)")
216
>>> result_number("CC(C)c1ccc(OC(C)(Cc2cccc(-c3ccccc3)c2)C(=O)[O-])cc1.[Na+] (stereo unspecified)")
193
>>> result_number("CCCc1ccc(CC(C)(Oc2ccc(C(C)C)cc2)C(=O)[O-])cc1.[Na+] (stereo unspecified)")
233
